System: MS2 coat protein
experimentSummary: apparent KD of MS2 coat protein; designed switch direction (-1 OFF switch, 1 ON switch): -1; higher = weaker reporter binding
experimentalConditions: Eterna round: R95; input ligand: microRNA oligo, concentration not stated

polymerSequence	measurementTarget	apparent KD of MS2 coat protein
CGUGCGUAUGUGAGGAUAUGCUGGUCCUUGGAUCAGCAGAAGGCACAUGAGGAUCACCCAUGUGGUGUCGUACA [salish99_Bmod_Ex4_016] (puzzle: Brourd's mod of Exclusion 4)	MS2 coat protein	198 nM
CCUUUGUCAGGAUAUCAGAACGCGCUCGAAAGGAACGCAAAUGAGAAGGGACAUGAGGAUCACCCAUGUAAAGA [Enenrixe] (puzzle: Exclusion 4)	MS2 coat protein	42.8 nM
GAGGUGUUAGGAUAUCGGAGAUGGAGAAGAACGGGAAGAGCCGAGAAGGAACAUGAGGAUCACCCAUGUAGGUG [JR_Exclu4_Sub030] (puzzle: Exclusion 4)	MS2 coat protein	270 nM
GAAGAGACAGGAUAUACAUGAGGAUCACCCAUGUGAGUAUGUUAGAGGCGGAGGAGAUGUAGAAGGGUCAAAGA [JR_Exclu3_Sub017] (puzzle: Exclusion 3)	MS2 coat protein	19.6 nM
CUUUUGUGAGGAUAUUAGUAGUAAAUAAAUAAUAUUACUACUGAGAAGGCACAUGAGGAUCACCCAUGUUCCUC [salish99_ex4_r3_059] (puzzle: Exclusion 4)	MS2 coat protein	38.8 nM
CUCUUGUCAGGAUAUCAACGCCGCCCACACAGGCGGCGAAAUGAGAAGGGACAUGAGGAUCACCCAUGUUAAAA [Tiaonbi] (puzzle: Exclusion 4)	MS2 coat protein	86.1 nM
UAGGAGUCAGGAUAUGCGAGAGAUUGAAGUAUGGGAAGUGAGCAGAAGGGACAUGAGGAUCACCCAUGUGAGAA [JR_Exclu4_Sub094] (puzzle: Exclusion 4)	MS2 coat protein	46.8 nM
CGGUGUCAUGUAAGGAUAUCGCAUCCCAGCGGAUACGAGAAGGUACAUGAGGAUCACCCAUGUACGAUAAAAUA [Atzabian] (puzzle: Brourd's mod of Exclusion 4)	MS2 coat protein	12.5 nM
UUAUAUAAUGUGAGGAUAUGCUGGUCGAUAGAUCAGCAGAAGGCACAUGAGGAUCACCCAUGUAGUAAAUUUUA [Mat - Exclusion 4 - JL Mod - D13] (puzzle: Brourd's mod of Exclusion 4)	MS2 coat protein	16.4 nM
CUCCUCAUGGCGCCUAAACACAUGAGGAUCACCCAUGUACAGGCUUUUUGCCGUCUUAUAAUAAAACCGAGGAGGCG [Atrelele] (puzzle: Sensor v3, turn-off variant 1)	MS2 coat protein	146 nM
GUGUAACAAGGAUAUACAUGAGGAUCACCCAUGUGAAUAAGAUUGAAUAAGAUAAAGUGUAGAAGGUGUAGUGU [Excluse me!!! 9 - Jieux - Exclusion 3] (puzzle: Exclusion 3)	MS2 coat protein	31.6 nM

* * *

System: MS2 coat protein
experimentSummary: apparent KD of MS2 coat protein; designed switch direction (-1 OFF switch, 1 ON switch): -1; higher = weaker reporter binding
experimentalConditions: Eterna round: R95; input ligand: FMN 200 uM
metricName: apparent KD of MS2 coat protein (µM)

polymerSequence	metricName	reportedResult
AGGAAGCAAGGAUAUACGAGGAGAAGGUGGAGAUUUAAAGGACAUGAGGAUCACCCAUGUAGAAGGUGCGAGAA [JR_Exclu2_Sub046] (puzzle: Exclusion 2)	apparent KD of MS2 coat protein	0.0796
CCUUUGUCAGGAUAUCAGAACGCGCUCGAAAGGAACGCAAAUGAGAAGGGACAUGAGGAUCACCCAUGUAAAGA [Enenrixe] (puzzle: Exclusion 4)	apparent KD of MS2 coat protein	0.158
AGUAACCGUCACGAAAGUGAUGGUUACACAAGCAUAUGUACAUGAGGAUCACCCAUGUCCUCAACUGCUCGUCUUAU [Sensor 3 - 55] (puzzle: Sensor v3, turn-off variant 2)	apparent KD of MS2 coat protein	0.296
GGUUGGCGAGGAUAUACAUGAGGAUCACCCAUGUGAGAGAAAAUAGUGAGGAAGAAAAGUAGAAGGCGCUGACG [salish99_ex3_r3_014] (puzzle: Exclusion 3)	apparent KD of MS2 coat protein	0.0981
GGUUGGCGAGGAUAUACAUGAGGAUCACCCAUGUGAGAAUAAAAAGUGAGGAAGAAAAGUAGAAGGCGCUGACG [Mat - Exclusion 3 - Mod of Salish D5] (puzzle: Exclusion 3)	apparent KD of MS2 coat protein	0.0765
